- System: rat DGAT2 mRNA
- assay: Dose-dependent inhibition of DGAT2 in A10 cells, 0.62-150 nM (Example 22, Table 83)
- Format: cell-based
- experimental_conditions: 5.56 nM
Strand notation (5' to 3'): a small letter for the sugar, then the base; units joined by * are phosphorothioate-linked, units joined directly phosphodiester-linked; [ ] holds rarer units or linkages, { } end groups; capitals alone tell only the bases. e = 2'-O-(2-methoxyethyl) (MOE); [5mC] = 5-methylcytosine; d = 2'-deoxy (DNA)
outcome_measure: percent inhibition of rat DGAT2

INSERT INTO measurements (substance, number) VALUES
  ('372563 (antisense eA*eG*d[5mC]*d[5mC]*dA*dG*dG*dT*dG*dA*d[5mC]*dA*eG*eA) [compound 372563]', 0),
  ('372508 (antisense eA*eG*eT*dT*d[5mC]*d[5mC]*dT*dG*dG*dT*dG*dG*dT*e[5mC]*eA*eG) [compound 372508]', 6),
  ('372618 (antisense eG*eT*dG*dG*dT*dA*d[5mC]*dA*dG*dG*dT*d[5mC]*eG*eA) [compound 372618]', 0);
